- System: human erythrocytes
- Assay type: cell-based
Where a SMILES comes first, the peptide text is derived from it.
measure.name: side effects to humans as tested by hemolysis assay

INSERT INTO results (compound, target, observed_value) VALUES
  ('CC[C@H](C)[C@H](NC(=O)[C@H](CC(C)C)NC(=O)[C@H](CCCNC(=N)N)NC(=O)[C@@H](N)CCCNC(=N)N)C(=O)N[C@@H](Cc1c[nH]c2ccccc12)C(=O)N[C@@H](CCCNC(=N)N)C(=O)N[C@@H](CCCNC(=N)N)C(=O)N[C@@H](Cc1ccccc1)C(=O)N[C@@H](CCCCN)C(=O)N[C@@H](Cc1c[nH]c2ccccc12)C(=O)N[C@@H](CC(C)C)C(=O)N[C@@H](CCCNC(=N)N)C(=O)O [Chain204] (H-RRLIWRRFKWLR-OH)', 'human erythrocytes', 'little side effects'),
  ('CC[C@H](C)[C@H](NC(=O)[C@H](Cc1c[nH]c2ccccc12)NC(=O)[C@@H](N)CCCCN)C(=O)N[C@H](C(=O)N[C@@H](Cc1c[nH]c2ccccc12)C(=O)N[C@@H](CCCNC(=N)N)C(=O)N[C@@H](Cc1c[nH]c2ccccc12)C(=O)N[C@@H](CCCNC(=N)N)C(=O)N[C@@H](Cc1ccccc1)C(=O)N[C@@H](CCCCN)C(=O)N[C@@H](CCCNC(=N)N)C(=O)O)C(C)C [Chain201] (H-KWIVWRWRFKR-OH)', 'human erythrocytes', 'little side effects'),
  ('CC(C)C[C@H](NC(=O)[C@H](Cc1c[nH]c2ccccc12)NC(=O)[C@H](Cc1ccccc1)NC(=O)[C@H](Cc1c[nH]c2ccccc12)NC(=O)[C@H](CCCCN)NC(=O)[C@H](CC(C)C)NC(=O)[C@@H](N)CCCNC(=N)N)C(=O)N[C@@H](Cc1ccccc1)C(=O)N[C@@H](CCCNC(=N)N)C(=O)N[C@@H](CCCCN)C(=O)N[C@@H](CCCNC(=N)N)C(=O)O [Chain307] (H-RLKWFWLFRKR-OH; N-terminus and C-terminus assumed)', 'human erythrocytes', 'little side effects');
